compounds and their reported inhibition at 20 µM
TGT: hERG (KCNH2) (Homo sapiens)
Sequence (Q12809 whole entry): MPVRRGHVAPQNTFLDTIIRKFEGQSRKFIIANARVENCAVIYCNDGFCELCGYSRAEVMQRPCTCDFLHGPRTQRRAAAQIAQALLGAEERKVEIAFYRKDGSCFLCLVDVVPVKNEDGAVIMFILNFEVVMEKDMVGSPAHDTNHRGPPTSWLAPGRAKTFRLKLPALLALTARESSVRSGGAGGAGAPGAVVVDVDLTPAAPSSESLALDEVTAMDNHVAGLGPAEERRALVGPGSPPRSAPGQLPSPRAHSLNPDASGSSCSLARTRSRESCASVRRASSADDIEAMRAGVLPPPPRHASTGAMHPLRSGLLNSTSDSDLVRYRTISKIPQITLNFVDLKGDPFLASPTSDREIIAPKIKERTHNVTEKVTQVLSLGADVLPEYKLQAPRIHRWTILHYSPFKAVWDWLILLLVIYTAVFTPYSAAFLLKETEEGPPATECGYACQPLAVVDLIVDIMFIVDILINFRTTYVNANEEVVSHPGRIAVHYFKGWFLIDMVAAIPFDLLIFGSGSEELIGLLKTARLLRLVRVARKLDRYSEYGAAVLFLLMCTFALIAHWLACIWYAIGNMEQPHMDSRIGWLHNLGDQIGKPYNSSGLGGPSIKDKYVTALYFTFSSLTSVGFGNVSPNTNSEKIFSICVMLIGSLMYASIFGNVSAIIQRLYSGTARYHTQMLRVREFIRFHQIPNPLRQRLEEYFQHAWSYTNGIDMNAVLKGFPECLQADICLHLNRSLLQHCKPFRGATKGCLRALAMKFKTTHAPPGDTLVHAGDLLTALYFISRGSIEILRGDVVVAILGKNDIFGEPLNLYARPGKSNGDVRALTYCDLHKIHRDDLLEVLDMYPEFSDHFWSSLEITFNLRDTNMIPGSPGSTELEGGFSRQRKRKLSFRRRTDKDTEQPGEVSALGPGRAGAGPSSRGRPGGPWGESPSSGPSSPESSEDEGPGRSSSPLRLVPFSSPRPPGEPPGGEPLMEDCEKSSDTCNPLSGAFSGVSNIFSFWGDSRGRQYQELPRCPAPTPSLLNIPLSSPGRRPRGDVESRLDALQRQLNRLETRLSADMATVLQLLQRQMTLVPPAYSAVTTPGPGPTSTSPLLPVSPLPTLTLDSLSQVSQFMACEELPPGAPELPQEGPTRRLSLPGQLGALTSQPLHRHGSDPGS
PROTOCOL_DETAILS: Inhibition of human ERG expressed in CHO cells at 20 uM by patch clamp assay relative to control
Assay type: cell-based
CONDITION_SUMMARY: CHO cells that express hERG
Remember to follow the number with its unit.

- CN(CCOc1ccc(CC2SC(=O)NC2=O)cc1)c1ccccn1 (configuration not stated): 42.5%

Next, consider the following compound.
Query (compound): CCN(CC)/[N+]([O-])=N/OCOC(=O)/C=C/c1ccc(OC(=O)OCN2C(=O)SC(Cc3ccc(OCCN(C)c4ccccn4)cc3)C2=O)c(OC)c1 (configuration not stated) ; field requested: inhibition at 20 µM
26.2%

====

System: L02
PROTOCOL_DETAILS: Inhibition of cellular glucose output in dexamethasone-induced insulin resistant human L02 cells assessed as insulin-stimulated glucose uptake at 10 uM preincubated for 24 hrs followed by insulin stimulation measured after 24 hrs by glucose oxidase method (reference value: 4.5 +/- 0.7%)
Type: functional
Set-up: scale not given: the % may be the effect or the level left
Each entry gets not met if its Activity stays under 10%, and met if its Activity is 10% or above.

- COc1cc(/C=C/C(=O)OCCCCCO[N+](=O)[O-])ccc1OC(=O)OCN1C(=O)SC(Cc2ccc(OCCN(C)c3ccccn3)cc2)C1=O (stereo not drawn): not met
- COc1cc(/C=C/C(=O)OCN2C(=O)SC(Cc3ccc(OCCN(C)c4ccccn4)cc3)C2=O)ccc1OCCCCCCO[N+](=O)[O-] (stereo not drawn): not met
- COc1cc(/C=C/C(=O)OCN2C(=O)SC(Cc3ccc(OCCN(C)c4ccccn4)cc3)C2=O)ccc1OCCCCO[N+](=O)[O-] (stereo not drawn): met
- COc1cc(/C=C/C(=O)OCCCCO[N+](=O)[O-])ccc1OC(=O)OCN1C(=O)SC(Cc2ccc(OCCN(C)c3ccccn3)cc2)C1=O (stereo not drawn): met
- CN(CCOc1ccc(CC2SC(=O)NC2=O)cc1)c1ccccn1 (stereo not drawn): met

Does the compound CCN(CC)/[N+]([O-])=N/OCOC(=O)/C=C/c1ccc(OC(=O)OCN2C(=O)SC(Cc3ccc(OCCN(C)c4ccccn4)cc3)C2=O)c(OC)c1 (stereo not drawn) have recorded Activity that is 10% or more?
met

Does the compound COc1cc(/C=C/C(=O)OCN2C(=O)SC(Cc3ccc(OCCN(C)c4ccccn4)cc3)C2=O)ccc1OCCCO[N+](=O)[O-] (stereo not drawn) have recorded Activity that is 10% or more?
met

====

PROTOCOL_DETAILS: Metabolic stability in simulated gastric fluid at pH 1.5 measured after 16 hrs by HPLC analysis
Format: ADME
CONDITION_SUMMARY: read-out: Stability
RESULT_TYPE: remaining at 16 h (%)
Numeric answer only, unit % assumed.

Query (molecule): CCN(CC)/[N+]([O-])=N/OCOC(=O)/C=C/c1ccc(OC(=O)OCN2C(=O)SC(Cc3ccc(OCCN(C)c4ccccn4)cc3)C2=O)c(OC)c1 (stereo unspecified) ; field requested: remaining at 16 h
86.6

====

PROTOCOL_DETAILS: Drug metabolism in Sprague-Dawley rat plasma after 0.5 hrs by HPLC analysis
Type: ADME, cell-free
CONDITION_SUMMARY: read-out: Drug metabolism
RESULT_TYPE: metabolised at 0.5 h (%)
Numeric answer only, unit % assumed.

Query (molecule): CCN(CC)/[N+]([O-])=N/OCOC(=O)/C=C/c1ccc(OC(=O)OCN2C(=O)SC(Cc3ccc(OCCN(C)c4ccccn4)cc3)C2=O)c(OC)c1 (stereo unspecified) ; field requested: metabolised at 0.5 h
23
